Where do these numbers come from? They come from PubChem BioAssay (NCI).

# System: COLO 205 colon
# method: NCI tumour cell line growth inhibition, 48 h
Measured TGI of individual entries
quantity.kind: TGI

1. Cn1ncc2c(/N=C/c3cccs3)[nH]c(=S)nc21; 65.7 µM
2. O=C1N=C(c2ccccc2)OC1C(=O)c1ccccc1 (stereo unspecified); > 100 µM
3. O=c1[nH]c(-c2cccc(F)c2)nc2ccccc12; > 100 µM
4. COC1C=CC(C(=O)[N+]2=Cc3[nH]c4ccccc4c3CC2)O1 (stereo unspecified); > 100 µM
5. COc1ccc(C(c2ccc(C(C)C)cc(=O)c2O)c2ccc3cccnc3c2O)cc1 (stereo unspecified); 19.3 µM
6. CC(=O)N(C)c1ccc2c(ccc[n+]2[O-])c1[N+](=O)[O-]; > 100 µM
